The binders listed here are annotated with their pIC50.
# assay system: HLA-A02.01 (human)
# procedure summary: competition vs radiolabeled reference peptide on purified MHC I, gel filtration
Just so you know, pIC50 here is -log10 of the concentration in molar units; reply with that number alone.

1) KQWSSVTSL (also called EIF2B3(-1)) | 7.58
2) PLCDLLLEM (also called ESR1, Y537C) | 6.22
3) KLFSCLSFL (also called C15ORF40(+1)) | 8.22

Ask: Kindly indicate its recorded pIC50. Item: PLNDLLLEM (also called ESR1, Y537N)
Result: 6.82

Ask: Kindly indicate its recorded pIC50. Item: VVPLSDLLL (also called ESR1, Y537S)
Result: 5.59

Ask: Kindly indicate its recorded pIC50. Item: ALEEKKGNYV (also called EGFRvIII (internal deletion))
Result: 6.85

Ask: Kindly indicate its recorded pIC50. Item: GLLLEMLDA (also called ESR1, D538G)
Result: 6.25

Ask: Kindly indicate its recorded pIC50. Item: ILMELMAGGD (also called ALK, L1196M)
Result: 5.46
